Target: Monoamine transporters; Norepininephrine & dopamine (Rattus norvegicus) (UniProt P23977+Q9WTR4)
Assay: Selectivity ratio is IC50 value of NET to that of DAT
Type: protein assay
Parameter: Ratio. Scope: all listed entries.
Write no unit; give the number alone.

Consider the following illustrative entries.
CCc1ccc(C2CC3CC[C@H](C2C(=O)OC)N3C)cc1 (stereo not given in full) ... 71
CCc1ccc(C2CC3CC[C@@H](N3)C2C(=O)OC)cc1 (stereo not given in full) ... 2.5
COC(=O)C1C(c2ccc(Cl)cc2)CC2CC[C@H]1N2 (stereo not given in full) ... 7
COC(=O)C1C(c2cccc(I)c2)CC2CC[C@H]1N2C (stereo not given in full) ... 61

Next item in the queue.
Prompt: Kindly indicate its recorded Ratio. Item: CCc1ccc(C2CC3CC[C@@H](N3)C2C(=O)OC)cc1I (stereo not given in full)
Completion: 40

Origin of measurements: ChEMBL document CHEMBL1130242
